Target: human GABABR1aR2a (Homo sapiens, UniProt O75899+Q9UBS5)
Construct: expressed in transfected cells
Sequence (Q9UBS5 15-961 limits assumed): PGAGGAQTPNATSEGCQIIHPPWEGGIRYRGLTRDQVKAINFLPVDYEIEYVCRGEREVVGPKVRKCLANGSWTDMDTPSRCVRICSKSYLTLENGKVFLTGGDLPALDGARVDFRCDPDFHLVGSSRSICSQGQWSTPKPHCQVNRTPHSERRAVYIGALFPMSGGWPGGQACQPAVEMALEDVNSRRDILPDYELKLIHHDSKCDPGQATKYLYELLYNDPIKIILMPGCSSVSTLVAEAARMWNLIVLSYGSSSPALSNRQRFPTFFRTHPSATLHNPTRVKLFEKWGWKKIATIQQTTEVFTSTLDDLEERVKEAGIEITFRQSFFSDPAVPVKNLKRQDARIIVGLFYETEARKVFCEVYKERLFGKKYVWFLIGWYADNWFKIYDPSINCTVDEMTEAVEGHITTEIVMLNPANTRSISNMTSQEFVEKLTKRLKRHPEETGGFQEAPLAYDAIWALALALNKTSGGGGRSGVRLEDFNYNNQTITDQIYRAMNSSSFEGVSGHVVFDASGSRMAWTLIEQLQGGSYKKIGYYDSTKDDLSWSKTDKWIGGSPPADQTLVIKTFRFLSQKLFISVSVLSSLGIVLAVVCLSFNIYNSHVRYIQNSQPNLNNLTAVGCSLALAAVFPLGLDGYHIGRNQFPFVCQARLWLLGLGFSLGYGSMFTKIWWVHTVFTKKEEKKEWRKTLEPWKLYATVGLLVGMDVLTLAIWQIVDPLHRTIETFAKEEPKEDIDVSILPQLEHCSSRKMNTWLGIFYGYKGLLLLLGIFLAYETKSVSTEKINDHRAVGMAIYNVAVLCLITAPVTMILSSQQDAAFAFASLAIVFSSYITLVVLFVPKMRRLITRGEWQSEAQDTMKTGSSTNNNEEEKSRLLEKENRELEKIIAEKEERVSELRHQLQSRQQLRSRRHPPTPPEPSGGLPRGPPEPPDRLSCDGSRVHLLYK
Sequence (O75899 42-941): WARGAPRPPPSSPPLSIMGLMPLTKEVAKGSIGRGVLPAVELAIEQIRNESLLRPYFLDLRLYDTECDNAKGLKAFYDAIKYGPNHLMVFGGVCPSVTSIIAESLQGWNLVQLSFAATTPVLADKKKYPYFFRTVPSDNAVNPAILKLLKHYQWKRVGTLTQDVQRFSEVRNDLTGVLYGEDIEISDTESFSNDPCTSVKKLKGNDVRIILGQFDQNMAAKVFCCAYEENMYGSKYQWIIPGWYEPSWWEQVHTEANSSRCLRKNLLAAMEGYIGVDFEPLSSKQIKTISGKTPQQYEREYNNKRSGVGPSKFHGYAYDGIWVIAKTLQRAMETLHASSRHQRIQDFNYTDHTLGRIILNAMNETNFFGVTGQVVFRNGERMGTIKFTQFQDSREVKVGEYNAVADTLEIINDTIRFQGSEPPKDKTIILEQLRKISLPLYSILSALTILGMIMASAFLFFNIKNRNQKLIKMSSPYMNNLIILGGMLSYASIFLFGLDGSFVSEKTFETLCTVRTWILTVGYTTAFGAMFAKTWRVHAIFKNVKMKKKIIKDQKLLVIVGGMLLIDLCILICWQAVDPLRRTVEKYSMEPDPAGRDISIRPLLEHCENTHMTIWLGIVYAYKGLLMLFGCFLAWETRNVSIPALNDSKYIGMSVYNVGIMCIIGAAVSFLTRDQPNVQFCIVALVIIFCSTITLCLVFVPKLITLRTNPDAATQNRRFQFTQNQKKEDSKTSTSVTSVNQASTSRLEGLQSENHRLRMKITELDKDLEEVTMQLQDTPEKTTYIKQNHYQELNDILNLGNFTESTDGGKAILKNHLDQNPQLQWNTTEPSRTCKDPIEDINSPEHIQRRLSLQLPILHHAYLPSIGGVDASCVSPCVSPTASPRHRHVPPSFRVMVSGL
Test: Intracellular Ca2+ mobilization assay in CHO-GABABR1aR2a-Gα16 cell (FLIPR)
Type: cell-based
Settings: enhancer 0.001-30 μM in the presence of 10 nM GABA (EC10); enhancer applied 15 min before GABA; read-out: Emax (%) at 10 nM GABA alone = 0% 10 μM GABA alone = 100%
reportedEndpoint: Emax (%)

**Query** What does the record list as Emax for `COC(=O)c1ccc(-c2c(C(=O)C3CC3)c(C)nc3sc4c(c23)CCCCC4)cc1` ?
**Result** 56

**Query** // Emax lookup, key: `Cc1nc2sc(C)c(C)c2c(-c2ccccc2)c1C(=O)C(F)(F)F`
**Result** 69

**Query** So what's the measured Emax for this one? `Cc1nc2sc3c(c2c(-c2cccs2)c1C(=O)C(F)(F)F)CCC3`
**Result** 59

a. Cc1nc2sc(Cl)cc2c(-c2ccccc2)c1C(=O)C(F)(F)F
b. COC(=O)N1CCc2c(sc3nc(C)c(C(C)=O)c(-c4ccccc4)c23)C1
c. CC(=O)c1c(C)nc2sc3cnccc3c2c1-c1ccccc1
**Query** Which order do these items take when sorted by rising Emax? List them. Please respond with the labels ordered as the question requires.
**Result** b, c, a

* * *

Molecular target: human GABABR1aR2a (Homo sapiens, UniProt O75899+Q9UBS5)
Construct: expressed in transfected cells
Assay: Intracellular Ca2+ mobilization assay in CHO-GABABR1aR2a-Gα16 cell (FLIPR)
Assay type: cell-based
Details: GABA 0.0003-30 μM in absence and presence of 10 μM enhancer
Procedure: Intracellular Ca^2+ Mobilization Assay The Chinese Hamster Ovary (CHO) cells stably expressing human GABABR1aR2a and Gα16 were seeded at 5×10^4 cells/well in the poly-D-lysine treated, 96-well, black/clear-bottomed plates (BD Biosciences, Palo Alto, Calif.). […] For GABA shift assay, concentration-response curves of GABA (0.0003-30 μM) were determined in the absence and presence of 10 μM enhancer. […]
reportedEndpoint: GABA shift Log [EC50(GABA + 10 μM cp)/EC50(GABA alone)]

**Query** Form field: reported GABA shift Log [EC50(GABA + 10 μM cp)/EC50(GABA alone)] of `COC(=O)N1CCc2c(sc3nc(C)c(C(C)=O)c(-c4ccccc4)c23)C1`
**Result** −0.3

**Query** Need GABA shift Log [EC50(GABA + 10 μM cp)/EC50(GABA alone)], item `Cc1nc2sc3c(c2c(-c2cccs2)c1C(=O)C(F)(F)F)CCC3`
**Result** −0.9

**Query** Param item = `Cc1nc2sc(C)c(C)c2c(-c2ccccc2)c1C(=O)C(F)(F)F` ; retrieve measured GABA shift Log [EC50(GABA + 10 μM cp)/EC50(GABA alone)].
**Result** −0.9

**Query** State the recorded GABA shift Log [EC50(GABA + 10 μM cp)/EC50(GABA alone)] for this entry: `COC(=O)c1ccc(-c2c(C(=O)C3CC3)c(C)nc3sc4c(c23)CCCCC4)cc1`
**Result** −0.91

**Query** If you can, please state the reported GABA shift Log [EC50(GABA + 10 μM cp)/EC50(GABA alone)] value of `CC(=O)c1c(C)nc2sc3cnccc3c2c1-c1ccccc1` .
**Result** −0.6

I. Cc1nc2sc(Cl)cc2c(-c2ccccc2)c1C(=O)C(F)(F)F
II. Cc1nc2sc3c(c2c(-c2ccc(Cl)c(Cl)c2)c1C(=O)C(F)(F)F)CCC3
**Query** Just curious, which one has the larger GABA shift Log [EC50(GABA + 10 μM cp)/EC50(GABA alone)] reading, I or II ? Label of pick, please.
**Result** II
(II: −0.3, I: −1.1)
